Numbers sourced from paper PMC11855827.

- Test system: C. elegans
- MEASUREMENT PARAMETERS: Table S2, C. elegans SS assay, 110 μM, 0 h, averages of 4 data points
METRIC NAME: Percentage of motility inhibition 0 h (%)
Use % as the unit, but write only the number.

INSERT INTO assay_data (compound, numeric_value) VALUES
  ('O=c1c(O[C@@H]2O[C@H](CO[C@@H]3O[C@H](CO)[C@@H](O)[C@H](O)[C@H]3O)[C@@H](O)[C@H](O)[C@H]2O)c(-c2ccc(O)cc2)oc2cc(O)cc(O)c12 [Kaempferol 3‐O‐gentiobioside]', 0),
  ('Cc1nc(C)c(C)nc1C.Cl [Ligustrazine (hydrochloride)]', 0);

Please examine the following record next.
Incoming: I am curious: what Percentage of motility inhibition 0 h value has been reported for O=C1O[C@H]([C@@H](O)CO)C([O-])=C1O.[Na+] [L-Ascorbic acid (sodium salt)] ?
Outgoing: 6
